biological target: human P450 2C9 (Homo sapiens, UniProt P11712); assay: Metabolism (hydroxylation) of substrates using transformed yeast cells or microsomal fractions expressing human P450 2C9; conditions: microsomes
Sequence (P11712 whole entry): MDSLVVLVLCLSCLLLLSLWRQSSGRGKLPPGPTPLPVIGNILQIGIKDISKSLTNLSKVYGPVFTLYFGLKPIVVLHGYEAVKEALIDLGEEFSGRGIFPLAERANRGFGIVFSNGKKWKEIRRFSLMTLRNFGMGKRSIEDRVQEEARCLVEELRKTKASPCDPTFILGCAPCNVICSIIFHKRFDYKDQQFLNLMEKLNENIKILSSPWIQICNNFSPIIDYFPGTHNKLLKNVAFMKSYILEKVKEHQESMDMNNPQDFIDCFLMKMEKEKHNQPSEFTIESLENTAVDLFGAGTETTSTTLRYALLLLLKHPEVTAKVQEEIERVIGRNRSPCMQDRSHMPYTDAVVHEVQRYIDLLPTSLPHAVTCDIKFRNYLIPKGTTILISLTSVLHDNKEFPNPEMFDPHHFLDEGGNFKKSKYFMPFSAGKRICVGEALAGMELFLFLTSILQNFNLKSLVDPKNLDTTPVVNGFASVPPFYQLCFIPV

- molecule: "N=C(N)N1CCc2ccccc2C1 [Debrisoquine]"
  test_target: "human P450 2C9 (Homo sapiens, UniProt P11712)"
  Hydroxylation activity, human P450 2C9: "−"
- molecule: "CC(=O)Nc1ccccc1 [Acetanilide]"
  test_target: "human P450 2C9 (Homo sapiens, UniProt P11712)"
  Hydroxylation activity, human P450 2C9: "+ +"
- molecule: "O=c1ccc2ccccc2o1 [Coumarin]"
  test_target: "human P450 2C9 (Homo sapiens, UniProt P11712)"
  Hydroxylation activity, human P450 2C9: "−"
- molecule: "CCOc1ccc2ccc(=O)oc2c1 [7-Ethoxycoumarin]"
  test_target: "human P450 2C9 (Homo sapiens, UniProt P11712)"
  Hydroxylation activity, human P450 2C9: "+"

// data source = patent US6620593B1
